meta.source: patent US20240109974A1

Overview of recorded AUC for various binders
Target: T1, human TNFR2 on the surface of CHO-TNFR2 cells (human, UniProt P20333 23-461)
T1 construct: whole, on cells
T1 sequence (looked up): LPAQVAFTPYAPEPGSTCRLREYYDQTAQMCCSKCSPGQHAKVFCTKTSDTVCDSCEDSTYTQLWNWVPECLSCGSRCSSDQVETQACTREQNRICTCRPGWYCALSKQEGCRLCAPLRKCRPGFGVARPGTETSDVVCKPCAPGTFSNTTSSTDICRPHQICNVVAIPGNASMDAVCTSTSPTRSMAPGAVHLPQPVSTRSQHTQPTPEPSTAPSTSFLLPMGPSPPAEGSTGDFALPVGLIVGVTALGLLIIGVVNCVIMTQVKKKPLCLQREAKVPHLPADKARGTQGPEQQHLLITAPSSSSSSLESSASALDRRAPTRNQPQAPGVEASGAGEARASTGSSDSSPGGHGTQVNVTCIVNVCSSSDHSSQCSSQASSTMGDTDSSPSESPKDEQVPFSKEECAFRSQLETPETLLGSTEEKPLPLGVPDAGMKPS
Assay: flow cytometry on CHO-TNFR2 cells; area under the MFI fold curve
Form rule: numeric answer, no unit written next to it.

binder: 001-Hu2 (antibody, V domains shown, Humanized form of #001; also called VH2 + VL2) VH: EVQLVESGGGLVQPGGSLRLSCAASGFAFSTYDLSWVRQAPGKGLEWVAYINNGGISTYYSDTVKGRFTISRDNAKNSLYLQMNSLRAEDTAVYYCVRGPFYGSANYFDYWGQGTLVTVSS VL: DIQMTQSPSSLSASVGDRVTITCRTSESIYSNLPWYQQKPGKSPKLLIYDATKLAEGVPSRFSGSGSGTDFTLTISSLQPEDFATYYCQHFWVTPWTFGQGTKVEIK
AUC: 433

Next item in the queue.
Look up AUC: 224-Hu3 (antibody, V domains shown, Humanized form of #224; also called VH9 + VL8) VH: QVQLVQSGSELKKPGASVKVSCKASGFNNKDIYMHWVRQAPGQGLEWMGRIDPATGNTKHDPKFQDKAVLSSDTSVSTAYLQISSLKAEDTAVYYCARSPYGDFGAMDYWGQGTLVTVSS VL: DIQMTQSPSSLSASVGDRVTITCTASSSVSSNYLHWYQQKPGKAPKLLIYSTSNLPSGVPSRFSGSGSGTDFTLTISSLQAEDAATYYCHQYHRSPWTFGQGTKVEIK
675
